Sourced from ChEMBL document CHEMBL1201862

- System: TK-10
- ASSAY DETAILS: NCI tumour cell line growth inhibition, 48 h
The source made the active and inactive calls. No stated cut-off is given here; in the data, active = GI50 up to about 1.1 µM and inactive = higher.
Outcomes: active, inactive

compound=CCN1CCN(c2ccc(Nc3ccnc4ccc5c(nnn5C)c34)cc2)CC1 tgt=TK-10 group_label=inactive
compound=O=C1C(Cl)=C(N2C(=O)CCCC2=O)C(=O)c2ccccc21 tgt=TK-10 group_label=inactive
compound=CCCCCCn1c(SC)nc(COC(=O)NC)c1COC(=O)NC tgt=TK-10 group_label=inactive
compound="CC(C(O)c1ccccc1)C(O)(C(F)(F)F)C(F)(F)F (stereo not drawn)" tgt=TK-10 group_label=inactive
compound="C=C(C)C1CC=C(C)[C@](O)(C2(O)C[C@H](C(=C)C)CC=C2C)C1 (stereo partly drawn)" tgt=TK-10 group_label=inactive
compound="CCOC(=O)c1ccc2c(c1)nc1n2C(c2c(F)cccc2F)SC1 (stereo not drawn)" tgt=TK-10 group_label=inactive
compound="CN(C)CCNC1=Nc2ccccc2C(=S)N2CSCC12 (stereo not drawn)" tgt=TK-10 group_label=inactive
compound=O=C1c2c(O)cccc2Cc2cccc(O)c21 tgt=TK-10 group_label=active
compound="Cc1cc(Cl)ccc1NC(=O)C1C(=O)C(=O)N(c2ccc(Cl)cc2C)C1=O (stereo not drawn)" tgt=TK-10 group_label=inactive
compound=Cn1c(N)c(/C=C/C(=O)Oc2ccccc2)c(=O)n(C)c1=O tgt=TK-10 group_label=inactive
compound="CC(NC1CCCC[C@@H]1O)c1ccccc1 (stereo partly drawn)" tgt=TK-10 group_label=inactive
compound=CCc1ccccc1NC(=O)CCc1n[nH]c(=S)o1 tgt=TK-10 group_label=inactive
compound=C#Cc1c(C)c(/C=C/C(C)=C/C=C/C(C)=C/C(=O)OC)n(C)c1C tgt=TK-10 group_label=inactive
compound="C=C1CC(COc2ccc3c(C)c(Cl)c(=O)oc3c2)(c2ccccc2)OC1=O (stereo not drawn)" tgt=TK-10 group_label=inactive
compound="CC(C)(C)/N=C1\\C(=O)C2(C)CCC1C2(C)C (stereo not drawn)" tgt=TK-10 group_label=inactive
compound="C/C1=C\\CC[C@@]2(C)O[C@@H]2C[C@@H](C2(C)CO2)CC/C(C)=C/CC1 (stereo partly drawn)" tgt=TK-10 group_label=inactive
compound=Nc1cc(OCC2CCCCC2)nc(N)n1 tgt=TK-10 group_label=inactive
compound=C#CCn1c(I)cc2c(c1=O)COC(=O)[C@]2(O)CC tgt=TK-10 group_label=inactive
compound=CCCCc1cc2c(C)cc(=O)oc2c(O)c1O tgt=TK-10 group_label=inactive
compound=COC(=O)[C@H](CC(C)C)NC1=C(Cl)C(=O)c2c(O)ccc(O)c2C1=O tgt=TK-10 group_label=inactive
compound="COC(=O)C(COC(C)=O)NC(=O)/C=C/c1ccc(O)c(OC(C)=O)c1 (stereo not drawn)" tgt=TK-10 group_label=inactive
compound="Cc1ccc(C(=O)O)c(CC2Cc3c(C)cccc3C2=O)c1 (stereo not drawn)" tgt=TK-10 group_label=inactive
compound=CC1=C[P+](c2ccccc2)(c2ccccc2)c2ccccc2O1 tgt=TK-10 group_label=inactive

====

- Test system: MCF7
- ASSAY DETAILS: NCI tumour cell line growth inhibition, 48 h
Calls of active or inactive are those of the source. Cut-off read from the data, not from the text of the source: active = GI50 up to about 1.1 µM and inactive = higher.
OUTCOME MEASURE: GI50

compound=CN(C)CCCN1c2ccc([N+](=O)[O-])cc2CCc2cc([N+](=O)[O-])ccc21 tgt=MCF7 recorded_measurement="15.6 µM (inactive)"
compound="CCOC(=O)c1ccc(C(=O)C(C(C)=O)C(=O)OC(C)(C)C)n1C (stereo not given)" tgt=MCF7 recorded_measurement="> 100 µM (inactive)"
compound=O=c1c2ccccc2nc(-c2ccccc2)n1/N=C/c1ccccc1[N+](=O)[O-] tgt=MCF7 recorded_measurement="> 78.2 µM (inactive)"
compound=CCCCc1cc2c(C)cc(=O)oc2c(O)c1O tgt=MCF7 recorded_measurement="21.4 µM (inactive)"
compound=C#C[C@]1(O)CC[C@H]2[C@@H]3CCC4=C/C(=N\OCCN(CC)CC)CC[C@]4(C)[C@H]3CC[C@@]21C tgt=MCF7 recorded_measurement="4.29 µM (inactive)"
compound="COC(=O)C(COC(C)=O)NC(=O)/C=C/c1ccc(O)c(OC(C)=O)c1 (stereo not given)" tgt=MCF7 recorded_measurement="> 100 µM (inactive)"
compound=CCn1c2ccccc2c2ccc(C3C(C(=O)OC)=C(C)NC(C)=C3C(=O)OC)cc21 tgt=MCF7 recorded_measurement="27 µM (inactive)"
compound=CN(C)/C=N/c1ccc2c3c(cccc13)-c1ccccc1-2 tgt=MCF7 recorded_measurement="16.8 µM (inactive)"
compound=Cc1ccccc1Nc1nc2c(s1)C(=O)c1ccccc1C2=O tgt=MCF7 recorded_measurement="2 µM (inactive)"
compound="CC(=O)OCC(=O)O[C@@H]1[C@H]2[C@@H](OC(=O)c3ccccc3)[C@@H](C)C[C@]2(O)[C@H](OC(C)=O)[C@@]2(C)C(OC(C)=O)[C@]1(OC(C)=O)C[C@H]1C(=O)C(C)(C)C[C@@H]12 (stereo not given in full)" tgt=MCF7 recorded_measurement="> 50 µM (inactive)"
